Measured values drawn from PubChem BioAssay (NCI) for this set.

Tested on: NCI-H322M lung
Experiment: NCI-60 one-dose screen, 48 h (100 = growth as untreated, 0 = no growth, -100 = all killed)
Settings: 10 µM
Procedure: Growth inhibition of the NCI-H322M human Non-Small Cell Lung tumor cell line is measured as a screen for anti-cancer activity. Cells are grown in 96 well plates and exposed to the test compound for 48 hours. Compounds are tested at a single concentration, which is 10^-5 M for most compounds. The reported endpoint is percent growth (GI% or GIPRCNT), where numbers from 0 - 100% represent growth inhibition, and numbers from -100% - 0 represent cell death. […]
About 83,000 compounds went through this panel and 20% of them were active in at least one assay; those are over-represented in the sample as a whole.

compound: O=C(/C=C/c1nnc2n(Cc3ccccc3)c(=O)c3c4c(sc3n12)CCCC4)c1ccccc1
assay.system: NCI-H322M lung
growth / %: 107

compound: CCOC(=O)Cn1nnc(-c2ccc(OCc3ccccc3F)cc2)n1
assay.system: NCI-H322M lung
growth / %: 98.7

compound: O=S(=O)(NC1c2ccccc2Oc2ccccc21)c1ccccc1
assay.system: NCI-H322M lung
growth / %: 91.6

compound: COc1ccc(C2=Cc3ccc(OC(C)=O)cc3OC2)cc1
assay.system: NCI-H322M lung
growth / %: 92.3

compound: NCCNc1ccc2cc(-c3nc4ccccc4[nH]3)c(=O)oc2c1
assay.system: NCI-H322M lung
growth / %: 103

compound: CCN1CCOC1C(C)C (stereo unspecified)
assay.system: NCI-H322M lung
growth / %: 103

compound: COc1ccc(-c2[nH]ncc2/C=C/c2cc(C(F)(F)F)[nH]c(=O)n2)cc1
assay.system: NCI-H322M lung
growth / %: 98.1

compound: CCOc1ccc(-n2cc(-c3ccc(N(C)C)cc3)[n+]3c2CCCCC3)cc1
assay.system: NCI-H322M lung
growth / %: 45.3

compound: Cc1ccccc1C1=N[C@@H](Cc2ccccc2)C(=O)c2c(nc3ccccn23)N1
assay.system: NCI-H322M lung
growth / %: 106

compound: CNC(=O)c1cc(Oc2ccc(NC(=O)Nc3ccc(Cl)c(C(C)(C)C)c3)c(F)c2)ccn1
assay.system: NCI-H322M lung
growth / %: 107

compound: Clc1ccc(-c2nc(-c3cccs3)cn3ccnc23)cc1
assay.system: NCI-H322M lung
growth / %: 97.4

----------
system: SNB-19 CNS; test: NCI-60 one-dose screen, 48 h; conditions: 10 µM
Compounds without any hit were thinned out: in the full panel of roughly 83,000, 20% have a hit. Active and inactive are the calls of the source. How the source made its calls: active means growth percent below 10; inactive means the rest.
Outcomes: t (active), f (inactive)

compound: COc1cc(/C=C/C(=O)c2cc(-c3ccc(F)cc3)ccc2O)cc(OC)c1OC
assay.system: SNB-19 CNS
qualitative.label: f
//
compound: CCn1nc(-c2ccccn2)c2cccnc2c1=S
assay.system: SNB-19 CNS
qualitative.label: f
//
compound: CCN(CCCNC(=O)Cc1cc(=O)oc2cc(N(C)C)ccc12)CCNc1ccnc2cc(Cl)ccc12
assay.system: SNB-19 CNS
qualitative.label: f
//
compound: COc1ccc2c(c1)/C(=C/c1cc(OC)c(OC)c(OC)c1)C(=O)N2C
assay.system: SNB-19 CNS
qualitative.label: t
//
compound: COc1ccc(/C=C(\c2cc(OC)c(OC)c(OC)c2)c2nnc(-c3cccs3)o2)cc1
assay.system: SNB-19 CNS
qualitative.label: f
//
compound: COc1ccc(NC(=O)c2sc3nc4c(cc3c2N)C(O)CCC4)cc1 (stereo not given)
assay.system: SNB-19 CNS
qualitative.label: f
//
compound: COc1ccc(-c2nc(-c3nc4ccc(OC)cc4[nH]3)c3ccccn23)cc1
assay.system: SNB-19 CNS
qualitative.label: f
//
compound: CS(=O)(=O)Nc1ccc([N+](=O)[O-])cc1Oc1ccccc1
assay.system: SNB-19 CNS
qualitative.label: f
//
compound: CCN(Cc1ccccc1)C1CCN(Cc2cc(Br)ccc2O)CC1
assay.system: SNB-19 CNS
qualitative.label: f
//
compound: CS(=O)(=O)Nc1ccc(Nc2c3ccccc3nc3cc(Cl)ccc23)cc1
assay.system: SNB-19 CNS
qualitative.label: f

----------
tested on: T-47D breast; assay: NCI-60 one-dose screen, 48 h (100 = growth as untreated, 0 = no growth, -100 = all killed); details: 10 µM
The panel holds about 83,000 compounds, 20% with a hit somewhere; the sample as a whole holds those more often.
value.type: growth (%)

compound: CCCCn1c(=O)[nH]c2c(c1=O)C(c1ccc(Cl)cc1)c1c([nH]c(=O)n(CCCC)c1=O)N2
assay.system: T-47D breast
assay.value: 73.3

compound: N/C(=N\O)c1cn(C2OC(CO)C(O)C2O)c2ncnc(N)c12 (stereo not given)
assay.system: T-47D breast
assay.value: -7.04

compound: CCN(CC)CC(O)Cc1ccc(OC)cc1 (stereo not given)
assay.system: T-47D breast
assay.value: 104

compound: O=C(NNc1nc(N2CCCC2)nc(N2CCCC2)n1)c1ccccc1
assay.system: T-47D breast
assay.value: 97.6

compound: CC(C)(C)CC(C)(C)c1ccc(O)c(Cc2ccc(Cl)cc2Cl)c1
assay.system: T-47D breast
assay.value: -72.9

compound: COc1ccc(C(C)=O)cc1N1C(=O)C2C(C1=O)C1(c3ccccc3)C(=O)C2(c2ccccc2)C(c2ccc(C)cc2)=C1c1ccc(C)cc1 (stereo not given)
assay.system: T-47D breast
assay.value: 32.3

compound: COc1ccc2nc(C)cc(Nc3ccc(Cl)cc3)c2c1
assay.system: T-47D breast
assay.value: 102

compound: Cc1nc2sccn2c1-c1csc(Nc2cccc(Cl)c2C)n1
assay.system: T-47D breast
assay.value: 36.2

compound: O=C(COc1ccc(-c2nc3ccccc3[nH]2)cc1)N=Nc1c(O)[nH]c2ccccc12
assay.system: T-47D breast
assay.value: 59

compound: C/C(=N\NC(=O)c1sc(=S)n(C)c1N)c1cc2ccccc2o1
assay.system: T-47D breast
assay.value: 78.2

----------
system: BT-549 breast; assay: NCI-60 one-dose screen, 48 h (100 = growth as untreated, 0 = no growth, -100 = all killed); conditions: 10 µM
The panel holds about 83,000 compounds, 20% with a hit somewhere; the sample as a whole holds those more often.
# growth values compiled below

compound: O=C(O)CNS(=O)(=O)c1ccc(OCCOc2ccc(S(=O)(=O)NCC(=O)O)cc2)cc1
growth / %: 105
--
compound: COc1cccc(-c2nnc(COc3ccc(-c4nc5ccc(C)cc5[nH]4)cc3OC)o2)c1
growth / %: 92.7
--
compound: CC(=O)c1ccc(NCn2nc(-c3ccc(Cl)cc3)oc2=S)cc1
growth / %: 99.1
--
compound: CC(=O)n1nc(C(=O)OC(C)(C)C)c2cc(F)c(F)cc21
growth / %: 119
--
compound: COc1cc(C2CC(=O)Nc3c2c(C)nn3-c2nc3ccccc3[nH]2)cc(OC)c1O (configuration not stated)
growth / %: 46.2
--
compound: CC(=O)OC1Oc2ccccc2-c2oc(=O)c(-c3ccc(F)cc3)cc21 (configuration not stated)
growth / %: 80.6
--
compound: COc1cc(-c2nc3cc(Cl)c(Cl)cc3[nH]2)ccc1OCC(=O)NN
growth / %: 95
--
compound: Cc1cc(=O)oc2cc(OCc3cn(CC(O)CO)nn3)ccc12 (configuration not stated)
growth / %: 97.5
--
compound: COc1ccc(-c2nnc(COc3ccc(NC(=O)Nc4ccccc4)cc3F)o2)cc1
growth / %: 79.6
--
compound: CCOC(=O)c1cc2c(n1Cc1ccccc1)-c1oncc1CC2
growth / %: 92.7
--
compound: Fc1ccc(Nc2ccnc(N3CCN(c4ccnc5cc(Cl)ccc45)CC3)n2)cc1
growth / %: 75.1
--
compound: CC(Oc1ccc(Cl)cc1)c1ccccc1 (configuration not stated)
growth / %: 114

----------
system: UACC-257 melanoma; experiment: NCI-60 one-dose screen, 48 h; conditions: 10 µM
Compounds without any hit were thinned out: in the full panel of roughly 83,000, 20% have a hit. The source made the active and inactive calls. Rule for the calls: active = growth percent below 10; inactive = the rest.
Outcomes: active, inactive

molecule: Cc1nc2ccc(-n3c(-c4ccc(Cl)cc4)nc4ccccc4c3=O)cc2n1Cc1ccccc1
assay.system: UACC-257 melanoma
qualitative.label: inactive

molecule: CNC(=O)c1cc(Oc2ccc(NC(=O)Nc3ccc(Cl)c(OC4CCCCC4)c3)c(F)c2)ccn1
assay.system: UACC-257 melanoma
qualitative.label: inactive

molecule: CNC(=S)Sc1ccc([N+](=O)[O-])cc1[N+](=O)[O-]
assay.system: UACC-257 melanoma
qualitative.label: inactive

molecule: Cc1ccc(/C(CS(=O)(=O)c2ccc(C)cc2)=N\O)cc1
assay.system: UACC-257 melanoma
qualitative.label: inactive

molecule: COc1cc(Nc2ccnc(N3CCN(c4ccnc5cc(Cl)ccc45)CC3)n2)cc(OC)c1
assay.system: UACC-257 melanoma
qualitative.label: active

molecule: CCC1(C)OC(=O)NC1=O (configuration not stated)
assay.system: UACC-257 melanoma
qualitative.label: inactive

molecule: CCc1c(C(=O)NCc2c(O)ccc3cccc(O)c23)[nH]c(C)c1C(C)=O
assay.system: UACC-257 melanoma
qualitative.label: inactive

molecule: Cc1ccc2c3c(cccc13)-c1ccccc1C2=O
assay.system: UACC-257 melanoma
qualitative.label: inactive

molecule: CC(CNC(Cc1ccccc1)c1ccccc1)NC(Cc1ccccc1)c1ccccc1 (configuration not stated)
assay.system: UACC-257 melanoma
qualitative.label: inactive

molecule: COc1ccc(-c2nnc(COc3ccc(NC(=O)Nc4cccc(C(F)(F)F)c4)cc3F)o2)cc1
assay.system: UACC-257 melanoma
qualitative.label: inactive

molecule: CCOCC[P+](c1ccccc1)(c1ccccc1)c1ccccc1
assay.system: UACC-257 melanoma
qualitative.label: inactive

molecule: O=NN(CCCl)C(=O)NCc1ccc(-c2ccc(CNC(=O)N(CCCl)N=O)cc2)cc1
assay.system: UACC-257 melanoma
qualitative.label: inactive

molecule: CCOC(=O)Cn1nnc(-c2ccc(OCc3ccccc3F)cc2)n1
assay.system: UACC-257 melanoma
qualitative.label: inactive

molecule: O=C(Nc1ccc(OCc2nnc(-c3ccccc3)o2)c(F)c1)Nc1ccc(Cl)c(Cl)c1
assay.system: UACC-257 melanoma
qualitative.label: inactive

molecule: COC(=O)c1c(C)nc(Nc2nc3ccccc3s2)nc1-c1ccc(Cl)cc1Cl
assay.system: UACC-257 melanoma
qualitative.label: inactive

molecule: Cc1ccc([P+](Cc2ccccc2)(c2ccccc2)c2ccccc2)cc1
assay.system: UACC-257 melanoma
qualitative.label: active

molecule: CCOC(=O)c1c(C(F)(F)F)n([O-])c2ccc(OC)cc2[n+]1=O
assay.system: UACC-257 melanoma
qualitative.label: active

molecule: CCCCN(CCCC)c1ccc(C(=NC(C)CCCN(CC)CC)c2ccc(N(C)C)cc2)cc1 (configuration not stated)
assay.system: UACC-257 melanoma
qualitative.label: active

molecule: COc1ccccc1Cn1cc2c(c1-c1ccccc1)CCc1cnoc1-2
assay.system: UACC-257 melanoma
qualitative.label: inactive

molecule: COc1cc(OC)cc(-c2ccc(-c3ccc(C(=N)N)cn3)o2)c1
assay.system: UACC-257 melanoma
qualitative.label: active

molecule: COc1cc(C2C=C(c3ccc(Cl)cc3)N=C3SC(C)=CN32)cc(OC)c1OC (configuration not stated)
assay.system: UACC-257 melanoma
qualitative.label: inactive

molecule: Fc1ccc(-c2cc(C(Cl)Cl)no2)cc1
assay.system: UACC-257 melanoma
qualitative.label: inactive
